Origin of the recorded values: PubChem BioAssay

- test description: inhibitors of TNFa-induced NFkB p65 translocation, primary screen, imaging, HUVEC, MLSMR starter and 10KST1 sets (AID 438);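 note: compound added about 3h40 before a 20 min TNFalpha stimulation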
- applied conditions: HUVEC TNFa-induced p65 nuclear translocation; measured here: nuclei count (cytotoxicity indicator), at 2.08 µM
For each entry below, report its cell count value.
I only need the number, thanks.

Prompt line: State its cell count for this compound: "CC1(C)CC(=O)c2cnc(NC(=O)CCc3ccccc3)nc2C1"
Response line: 608

Prompt line: For "N#Cc1c(N)c(C(=O)c2ccccc2)n2c1CCCC2" , write its cell count.
Response line: 270

Prompt line: Using the record for "Cc1ccc(NC(=O)CSc2nnc(-c3cnccn3)n2Cc2ccco2)cc1C" , state its measured cell count.
Response line: 228

Prompt line: Give a short answer stating reported cell count for "CCn1c(Cc2ccccc2)nnc1SCC(=O)Nc1ccc(N2CCOCC2)c(Cl)c1" .
Response line: 427

Prompt line: Specify measured cell count for "Cc1nnc(C)c2c(C)n(Cc3ccc4c(c3)OCO4)c(C)c12" .
Response line: 679

Prompt line: Answer with the recorded cell count for the compound listed here: "NC(=O)CSc1cn(CCNC(=O)c2cccs2)c2ccccc12"
Response line: 604

Prompt line: Quickly give me recorded cell count for COC(=O)C1=C(C)NC(C)=C(C(=O)OC)C1C1CC=CCC1 (stereo not given)
Response line: 377

Prompt line: Give me measured cell count, please, for this compound: "CCc1c(C(=O)N2CCOCC2)csc1C"
Response line: 295

Prompt line: Could you please provide reported cell count for "CCOc1ccccc1NC(=O)CSc1nnc(Cc2cccn2C)n1-c1ccc(F)cc1" ? Thanks!
Response line: 529

Prompt line: Name the recorded cell count of the compound listed here: "CCOC(=O)N1CCN(C(=O)CN2C(=O)COc3ccc(C)cc32)CC1"
Response line: 590

Prompt line: Determine from records and report cell count for "COC(=O)C1CCN(C(=O)NC(C)(C)C)CC1"
Response line: 307

Prompt line: Please report cell count for the following compound: "COc1cc(/C=N/n2cnnc2)ccc1OCC(=O)N1CCOCC1"
Response line: 378

Prompt line: Consider the compound O=C(NCC1CCCO1)C1CCCN(S(=O)(=O)c2cccc3nsnc23)C1 (stereo not given) and give its recorded cell count.
Response line: 801

Prompt line: Give me measured cell count, please, for this compound: "c1cc(CNc2ccc3c(c2)OCO3)ccn1"
Response line: 240

Prompt line: Provide measured cell count value, entry: "COc1ccc(-n2c(Cc3cccn3C)nnc2SCC(N)=O)cc1"
Response line: 531

Prompt line: Indicate the recorded cell count value for this compound: "[O-][n+]1c2ccc3nonc3c2nn1-c1ccccc1Cl"
Response line: 340

Prompt line: Please give the documented cell count of "Cc1nc(SCCC(=O)O)c2ccccc2n1"
Response line: 310

Prompt line: Identify measured cell count associated with "Nc1nc(NCc2ccco2)nn1-c1ccccc1"
Response line: 335

Prompt line: Determine from records and report cell count for "COc1cc(OC)c(-c2nn3c(C4CCCCC4)nnc3s2)cc1OC"
Response line: 573

Prompt line: Find the measured cell count of c1ccc(Cn2nnnc2C(c2cccs2)N2CCSCC2)cc1 (stereo not given) and report it.
Response line: 482

Prompt line: State, in one line, measured cell count of "CCNc1nc(N2CCOCC2)nc(N(c2ccccc2)c2ccccc2)n1"
Response line: 324

Prompt line: Answer with reported cell count of "CCN(c1c(C)n(C)n(-c2ccccc2)c1=O)S(C)(=O)=O"
Response line: 614

Prompt line: Return cell count (reported value) for this compound: "O=C(c1ccccc1F)N1CCN(Cc2cccc(Cl)c2)CC1"
Response line: 649

Prompt line: Output measured cell count for this item: "O=S(=O)(NCc1cn2ccccc2n1)c1cc(F)ccc1F"
Response line: 282

Prompt line: Identify cell count associated with the compound CN1C(=O)CCC1(O)c1ccccc1 (stereo not given)
Response line: 565

====

- test description: endothelial E-selectin expression blockers – imaging, HUVEC, immunofluorescence, MLSMR starter and 10KST1 sets, primary screen (AID 487);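 note: 100% = median nuclei count of all wells on the same plate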
- applied conditions: HUVEC TNFalpha-induced E-selectin immunofluorescence imaging, at 2 µM; measured here: cell number, toxicity
Please provide measured nuclei count for the entries that follow.
Don't forget the unit after the value.

Prompt line: Indicate the recorded nuclei count value for this molecule: "CCOC(=O)N1CCC(NC(=O)CSCc2nc(-c3cccc(OC)c3)oc2C)CC1"
Response line: 124%

Prompt line: Provide one value: measured nuclei count of "O=C(CSCCSCC(=O)c1ccco1)c1ccco1"
Response line: 138%

Prompt line: Quickly give me recorded nuclei count for "CCn1c(C)nc2cc(C(=O)OCCC(F)(F)F)ccc21"
Response line: 92.5%

Prompt line: Report nuclei count for "O=C(NCCO)c1cc2ccccc2cc1O"
Response line: 109%

Prompt line: Tell me measured nuclei count for "O=C(Cn1nnc(-c2cc(Cl)ccc2-n2cnnn2)n1)N1CCCc2ccccc21" please.
Response line: 105%

Prompt line: Given the molecule "O=C(NCc1cccs1)C1CCN(S(=O)(=O)c2cccs2)CC1" , write its reported nuclei count.
Response line: 120%

====

For each entry below, report its inhibition value.
- test description: TLR3 IRF3 reporter activation blockers – cell-based, poly I:C stimulus, luciferase, 10K MLSCN set, primary screen (AID 602277)
- applied conditions: HEK293-TLR3 RL24 IRF3 luciferase reporter, at 10 µM, stronger effect = higher value
Active and inactive are the calls of the source.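 How the source made its calls: active means inhibition of the reporter signal at or above 50%; inactive means inhibition below 50%.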

Prompt line: Indicate its recorded inhibition; the compound in question is "Cc1onc(-c2c(Cl)cccc2Cl)c1C(=O)N1CCc2ccccc21"
Response line: 23.2% (inactive)

Prompt line: Check the records and state inhibition for "CCOC(=O)N1CCC(NC(=O)CCN2C(=O)COc3ccccc32)CC1"
Response line: 17.2% (inactive)

Prompt line: Quote inhibition reported for "CN(CCc1ccccn1)c1ncnc2[nH]ncc12" please.
Response line: -53.4% (inactive)

Prompt line: Give reported inhibition value for "O=c1c2cc(Cl)ccc2[nH]c(=S)n1Cc1ccco1"
Response line: 20.2% (inactive)

Prompt line: # return recorded inhibition for entry "C=CCOC(=O)CCC(=O)Nc1cc(OC)nc(OC)n1"
Response line: 19.2% (inactive)

Prompt line: Name the recorded inhibition of the compound listed here: "Cn1c(=O)[nH]c(=O)c2c1nc(NCCCn1ccnc1)n2Cc1cccc(Br)c1"
Response line: 26.1% (inactive)

====

- test target: Alpha-2C adrenergic receptor (Homo sapiens) (UniProt P18825)
- Sequence (P18825 whole entry, looked up): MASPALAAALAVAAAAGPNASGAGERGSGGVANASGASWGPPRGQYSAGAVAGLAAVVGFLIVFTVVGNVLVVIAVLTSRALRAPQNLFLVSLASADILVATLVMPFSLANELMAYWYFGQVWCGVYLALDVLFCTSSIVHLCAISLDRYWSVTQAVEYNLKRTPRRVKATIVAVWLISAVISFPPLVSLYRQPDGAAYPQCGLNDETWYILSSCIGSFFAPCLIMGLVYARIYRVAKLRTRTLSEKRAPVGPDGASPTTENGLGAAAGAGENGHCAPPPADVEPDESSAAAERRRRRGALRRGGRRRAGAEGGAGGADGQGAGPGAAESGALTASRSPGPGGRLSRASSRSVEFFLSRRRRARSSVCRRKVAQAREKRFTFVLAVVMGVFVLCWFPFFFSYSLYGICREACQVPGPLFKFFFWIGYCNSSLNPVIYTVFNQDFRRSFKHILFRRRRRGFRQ
- test description: compounds altering alpha2C-coupled GIRK flux – cell-based, HEK293 alpha2C/GIRK1/2, thallium flux, primary screen (AID 624);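 note: slope of fluorescence ratio to pre-addition baseline per second over 15 to 24 s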
- applied conditions: thallium flux BTC fluorescence, at 10 µM, actives lie on both sides
Definition: the class of an entry is the range in low (below 0.005), mid (0.005 to below 0.006), high (0.006 or more) that contains its slope.

Prompt line: Looking at "COc1ccc(NC(=O)CN2CCN(CC(=O)Nc3cc(OC)cc(OC)c3)CC2)cc1" , which class would you pick?
Response line: high

Prompt line: Just checking, what class would you give CCCNC(=O)NC1C(NC(=O)NCCC)N(C)C(=O)N1C (stereo unspecified) here?
Response line: mid

Prompt line: Which band does "CCC(=O)Nc1ccc(NC(=O)c2cccc(OC)c2)nc1" fall in?
Response line: mid

Prompt line: Quick check: band for "CCCNC(=O)CS(=O)(=O)Cc1nc(-c2cccc(OC)c2)oc1C"
Response line: high

Prompt line: Kindly identify the class of COCCn1nnnc1C(c1cc2cc(OC)ccc2[nH]c1=O)N1CCC(Cc2ccccc2)CC1 (stereo unspecified) .
Response line: low

Prompt line: Kindly identify the class of "O=C(NCc1ccco1)c1csc(Nc2ccccc2Cl)n1" .
Response line: high

Prompt line: Exam item: assign "CCOC(=O)c1ccccc1NC(=O)c1ccc2c(=O)n3c(nc2c1)CCCCC3" to the correct category.
Response line: high

Prompt line: For this compound, which bin applies? "Cc1cc(C)c2ccc(N)nc2c1O"
Response line: low

Prompt line: Please report the category associated with "O=c1[nH]c2ccc(Br)cc2c(-c2ccccc2)c1N1CCOCC1" , nothing else.
Response line: low

====

- test target: Voltage-gated potassium channel subunit beta-2 (Rattus norvegicus)
- test description: inhibitors of rat Kvbeta2 reductase activity – biochemical, NADPH fluorescence, primary screen (AID 622);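 note: slope of raw intensity against log time taken from 70 to 1610 s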
- applied conditions: recombinant KvBeta, 4-cyanobenzaldehyde reduction, at 10 µM, stronger effect = higher value
Where a SMILES comes first, the peptide text is derived from it.
Give fluorescence slope for every item shown.
// print number alone

Prompt line: Give a short answer stating reported fluorescence slope for COc1ccc(C(CC(=O)O)NC(=O)c2ccccc2)cc1OC (centres undefined) .
Response line: -0.311

Prompt line: Give the reported fluorescence slope for this compound. "COc1ccc2nc(SCC(=O)NC(C)C)[nH]c2c1"
Response line: -0.478

Prompt line: Answer with reported fluorescence slope of "O=c1[nH]c(SCc2ccccc2Cl)nc2c1CCCC2"
Response line: -0.295

Prompt line: Please supply the value of reported fluorescence slope for the item "Cc1ccc(OCCN2CCN(C(=O)CCC(=O)Nc3nnc(C)s3)CC2)cc1"
Response line: -0.318

Prompt line: Dear colleague, please send me the reported fluorescence slope for "N/C(=N/O)c1nc(N2CCCCC2)nc(N2CCCCC2)n1" when you can.
Response line: -0.498

Prompt line: Fill in reported fluorescence slope for this entry: "CCCCn1cnc2c1c(=O)n(C)c(=O)n2C"
Response line: -0.374

Prompt line: Quote fluorescence slope reported for "O=C(CN1CCOCC1)N1CCCc2c1c(=O)oc1ccc(OCc3ccccc3)cc21" please.
Response line: -0.589

Prompt line: Supply fluorescence slope value. Item: "O=C(c1ccco1)N(Cc1cc2ccccc2[nH]c1=O)C1CCCCC1"
Response line: -0.617

Prompt line: Kindly indicate its recorded fluorescence slope. Item: "CC(=O)Nc1ccc(S(=O)(=O)CCC#N)cc1"
Response line: -0.482

Prompt line: Identify measured fluorescence slope associated with CCCC(NC(=O)CNC(=O)C(C)(C)C)C(=O)O (centres undefined) (HELM PEPTIDE1{[CC(C)(C)C(=O)[*:2]].G.[CCCC(N[*:1])C(=O)O]}$$$$V2.0)
Response line: -0.499

Prompt line: Fill in fluorescence slope for record CC(CCc1ccccc1)NCc1ccncc1 (centres undefined)
Response line: -0.409

Prompt line: Determine its reported fluorescence slope: "Cc1cc(C)c2c(n1)nn1c(N3CCN(c4cccc(Cl)c4)CC3)cc(C)nc21"
Response line: -0.303

Prompt line: Please list fluorescence slope recorded for the compound COc1ccc(C2c3c(oc4ccccc4c3=O)C(=O)N2c2ccc(C)cn2)cc1OC (centres undefined)
Response line: -0.605

Prompt line: Give me measured fluorescence slope, please, for this compound: "CCNc1nc(N2CCOCC2)nc(N(c2ccccc2)c2ccccc2)n1"
Response line: -0.388

Prompt line: Report fluorescence slope, nothing else, for this compound: "CC(C)(C)SCCNC(=O)CSc1ccccc1"
Response line: -0.586

Prompt line: Using known records, supply fluorescence slope for "Cc1cc(Nc2ccccc2N2CCOCC2)n2ncnc2n1"
Response line: -0.588

Prompt line: // Input: "O=C(Cn1cc2c(n1)CCCCC2)N1CCc2ccccc2C1" . Output its fluorescence slope only.
Response line: -0.631

Prompt line: Find the measured fluorescence slope of "COCCNS(=O)(=O)c1cc(F)ccc1OC" and report it.
Response line: -0.481

Prompt line: Annotate the compound "Cc1cnc(C(=O)OCC(=O)Nc2ccc(Cl)cc2Cl)cn1" with its measured fluorescence slope.
Response line: -0.51

Prompt line: Assign fluorescence slope to the following record: O=C(OC1CCOC1=O)c1ccc(S(=O)(=O)N2CCCCCC2)cc1 (centres undefined)
Response line: -0.329

Prompt line: Tell me measured fluorescence slope for "COc1cccc(-c2nnc(NC(C)=O)o2)c1" please.
Response line: -0.407

Prompt line: Give recorded fluorescence slope. "Cc1nc2cc(C(=O)O)ccc2n1-c1ccc(F)cc1F"
Response line: -0.527

Prompt line: Recall and state the measured fluorescence slope for "CCCCOc1ccc(-c2ncc(Cl)cn2)cc1" .
Response line: -0.434

Prompt line: Answer with reported fluorescence slope of "Cc1cccc(-n2ncc3c(NCCCO)ncnc32)c1"
Response line: -0.582
